Data provenance is the supplement of paper PMC6555819.

System: FXR:RXRa (NR concentration 270 nM, RXRa partner concentration 90 nM)
Assay: PBM binding z-score (relative to random genomic background probes); higher = stronger binding; sequences stand for … in GC…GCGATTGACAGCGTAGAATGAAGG
TEST READOUT: PBM binding z-score

> print(dat)
                        chain.sequence         test.readout  endpoint.result
 1  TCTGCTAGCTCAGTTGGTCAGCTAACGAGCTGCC  PBM binding z-score            -1.44
 2  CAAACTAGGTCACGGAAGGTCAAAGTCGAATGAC  PBM binding z-score             7.44
 3  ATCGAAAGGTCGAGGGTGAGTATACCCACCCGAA  PBM binding z-score             4.29
 4  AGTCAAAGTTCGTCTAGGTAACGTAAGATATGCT  PBM binding z-score             1.46
 5  CAAACTAGGTCGCCGGAAGGTCAAAGTCCGCATG  PBM binding z-score             3.54
 6  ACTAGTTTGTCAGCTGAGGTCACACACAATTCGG  PBM binding z-score             3.55
 7  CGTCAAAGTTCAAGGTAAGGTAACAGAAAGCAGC  PBM binding z-score             6.16
 8  GCTATTAGTTGAAAGGGCAAGCGAATGATTCTCG  PBM binding z-score            0.532
 9  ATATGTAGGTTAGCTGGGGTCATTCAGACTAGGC  PBM binding z-score             4.38
10  CCTACTGGGCCAAAAAGATCATTGATGCCGATAA  PBM binding z-score             -0.2
11  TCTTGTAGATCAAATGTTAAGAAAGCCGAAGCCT  PBM binding z-score            0.704
12  GCGACTGGGGCAATGCAGGTTACCATAAGGTTGG  PBM binding z-score           0.0254
